# assayed-system: T1, polypeptide GC3pep (human)
# T1 construct: also called membrane proximal polypeptide GC3pep
# T1 peptide: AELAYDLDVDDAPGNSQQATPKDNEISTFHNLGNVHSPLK
# test-summary: ELISA, GC3pep coated, antibody 0.01 nM;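 further: bound antibody detected with an HRP-conjugated secondary antibody and TMB substrate, color reaction stopped with HCl before reading absorbance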
Below, each entry is listed with its recorded OD450 nm.

binder | OD450 nm / OD450 nm
F1.110.24 (antibody, human IgG1, kappa, V domains shown, human-murine chimeric antibody) VH: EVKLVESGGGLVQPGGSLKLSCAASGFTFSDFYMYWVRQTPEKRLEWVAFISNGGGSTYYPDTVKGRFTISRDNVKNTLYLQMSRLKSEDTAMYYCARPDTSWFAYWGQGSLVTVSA VL: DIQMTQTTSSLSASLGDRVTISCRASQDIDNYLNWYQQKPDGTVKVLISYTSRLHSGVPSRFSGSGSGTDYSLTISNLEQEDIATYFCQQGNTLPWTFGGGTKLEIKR | 0.05
F1.42.8 (antibody, human IgG1, kappa, V domains shown, human-murine chimeric antibody) VH: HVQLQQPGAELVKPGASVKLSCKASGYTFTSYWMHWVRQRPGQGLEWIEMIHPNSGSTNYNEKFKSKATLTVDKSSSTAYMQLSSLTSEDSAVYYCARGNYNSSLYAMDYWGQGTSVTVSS VL: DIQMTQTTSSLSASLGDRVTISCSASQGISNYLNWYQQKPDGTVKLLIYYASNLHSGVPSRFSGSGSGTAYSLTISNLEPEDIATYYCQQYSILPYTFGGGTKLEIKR | 0.05

Data credit: patent US20260116991A1
